- Target System: recombinant human SAE enzyme (Homo sapiens)
- Test Name: SAE HTRF Enzyme Assay
- Run Parameters: class symbols A-C
Documented IC50 across a set of molecules

Structure String | IC50
NS(=O)(=O)OC[C@H]1C[C@@H](Nc2ncncc2C(=O)c2cc(C(F)(F)F)n(Cc3cccc(Cl)c3)n2)[C@@H](F)[C@@H]1O | < 10 nM
Cc1ccc(Cn2ccc(C(=O)c3cncnc3N[C@@H]3C[C@H](COS(N)(=O)=O)[C@@H](O)[C@@H]3F)c2)o1 | < 10 nM
NS(=O)(=O)OC[C@H]1C[C@@H](Nc2ncncc2C(=O)c2ccn(Cc3ccc(F)c(C(F)(F)F)c3)c2)C[C@@H]1O | < 10 nM
NS(=O)(=O)OC[C@H]1C[C@@H](Nc2ncncc2C(=O)c2ccn(Cc3cc(C(F)(F)F)co3)c2)[C@@H](F)[C@@H]1O | < 10 nM
NS(=O)(=O)OC[C@H]1C[C@@H](Nc2ncncc2C(=O)c2ccn(Cc3sc4ccccc4c3Cl)c2)[C@@H](F)[C@@H]1O | < 10 nM

Kindly state the measured IC50 obtained for NS(=O)(=O)OC[C@H]1C[C@@H](Nc2ncncc2C(=O)c2ccn(Cc3cccc(Cl)c3)n2)C[C@@H]1O with recombinant human SAE enzyme (Homo sapiens).
< 10 nM

Lab request: please report IC50 under test system recombinant human SAE enzyme (Homo sapiens) for C=CC(=O)Nc1cccc(Cn2ccc(C(=O)c3cncnc3N[C@@H]3C[C@H](COS(N)(=O)=O)[C@@H](O)[C@H]3O)n2)c1
< 10 nM

Reported IC50 for recombinant human SAE enzyme (Homo sapiens), given NS(=O)(=O)OC[C@H]1C[C@@H](Nc2ncncc2C(=O)c2ccn(Cc3cc(I)ccc3Cl)n2)C[C@@H]1O ?
< 10 nM

Hello, I am looking for reported IC50 with recombinant human SAE enzyme (Homo sapiens) for NS(=O)(=O)OC[C@H]1C[C@@H](Nc2ncncc2C(=O)c2cc(Cl)n(Cc3ccc(F)c(Br)c3)c2)[C@@H](F)[C@@H]1O . Could you help?
< 10 nM

Recall the recorded IC50 for NS(=O)(=O)OC[C@H]1C[C@@H](Nc2ncncc2C(=O)c2ccn(Cc3cccc(C4(O)COC4)c3)n2)C[C@@H]1O with recombinant human SAE enzyme (Homo sapiens) and state it.
10 to 100 nM

Form: Entry = C[Si](C)(C)c1cccc(Cn2ccc(C(=O)c3cncnc3N[C@@H]3C[C@H](COS(N)(=O)=O)[C@@H](O)C3)n2)c1 | System = recombinant human SAE enzyme (Homo sapiens) | IC50 = ____
10 to 100 nM

I'm curious: which IC50 was measured for NS(=O)(=O)OC[C@H]1C[C@@H](Nc2ncncc2C(=O)c2ccn(Cc3ccc(Cl)o3)n2)C[C@@H]1O tested on recombinant human SAE enzyme (Homo sapiens)?
< 10 nM

Please provide the recorded IC50 for N#CCn1ccc(C(=O)c2cncnc2N[C@@H]2C[C@H](COS(N)(=O)=O)[C@@H](O)C2)n1 , tested on recombinant human SAE enzyme (Homo sapiens).
100 to 1000 nM

====

- Target System: recombinant human SAE enzyme (Homo sapiens, UniProt Q9UBT2)
- Test Name: SAE HTRF Enzyme Assay
- Format: biochemical
- Run Parameters: compound concentration 0.111 μM; read-out: Percent Inhibition
- Protocol: The SAE enzymatic reaction totals 50 μl and contains 50 mM HEPES Hemisodium (pH 7.5), 0.05% BSA, 5 mM MgCl2, 0.5 μM ATP, 250 μM GSH, 0.01 μM Ubc9-GST, 0.125 μM Sumo-Flag and 0.11 nM recombinant human SAE enzyme. […] After incubation for 2 hours at 24° C., quantification of FRET is performed on the Pherostar™ (BMG Labtech). Percentage inhibition values at a single concentration or enzyme inhibition (IC50) values are determined from those curves. […]
Items are presented alongside their recorded inhibition at 0.111 µM.
Phrase the answer as number then unit, nothing more needed.

Compound | Target System | inhibition at 0.111 µM
NS(=O)(=O)OC[C@H]1C[C@@H](Nc2ncncc2C(=O)c2ccn(CC(=O)c3cccc(Br)c3)n2)[C@H](O)[C@@H]1O [Compound I-96] | recombinant human SAE enzyme (Homo sapiens, UniProt Q9UBT2) | 98%
NS(=O)(=O)OC[C@H]1C[C@@H](Nc2ncncc2C(=O)c2ccn(Cc3ccc(Cl)c(Cl)c3)n2)C[C@@H]1O [Compound I-58] | recombinant human SAE enzyme (Homo sapiens, UniProt Q9UBT2) | 88%

Kindly consider the entry below.
Which inhibition at 0.111 µM reading was recorded for the compound NS(=O)(=O)OC[C@H]1C[C@@H](Nc2ncncc2C(=O)c2ccn(-c3ccccc3)n2)C[C@@H]1O [Compound I-205] ?
60%

====

- Target System: recombinant human SAE enzyme (Homo sapiens, UniProt Q9UBT2)
- Test Name: SAE HTRF Enzyme Assay
- Run Parameters: class symbols A-C
Value Type: IC50

Reference set, count: 4
Compound | Value Type | Endpoint Value
NS(=O)(=O)OC[C@H]1C[C@@H](Nc2ncncc2C(=O)c2ccn(Cc3cccnc3)n2)[C@H](O)[C@@H]1O [Compound I-247] | IC50 | < 10 nM
NS(=O)(=O)OC[C@H]1C[C@@H](Nc2ncncc2C(=O)c2cc(Cl)n(Cc3cc(C(F)(F)F)on3)c2)[C@@H](F)[C@@H]1O [Compound I-148] | IC50 | 10 to 100 nM
NS(=O)(=O)OC[C@H]1C[C@@H](Nc2ncncc2C(=O)c2cc(C(F)(F)F)n(Cc3ccccc3)c2)[C@@H](F)[C@@H]1O [Compound I-94] | IC50 | < 10 nM
CCC(c1cccc(Br)c1)n1ccc(C(=O)c2cncnc2N[C@@H]2C[C@H](COS(N)(=O)=O)[C@@H](O)[C@@H]2F)c1 (single isomer, unassigned) [Compound I-356] | IC50 | 10 to 100 nM

Lab note: need IC50 for NS(=O)(=O)OC[C@H]1C[C@@H](Nc2ccncc2C(=O)c2ccn(Cc3cccc(Cl)c3)c2)[C@@H](F)[C@@H]1O [Compound I-124] on recombinant human SAE enzyme (Homo sapiens, UniProt Q9UBT2), anyone have it?
< 10 nM

Please state recorded IC50 (tested on recombinant human SAE enzyme (Homo sapiens, UniProt Q9UBT2)) of NS(=O)(=O)OC[C@H]1C[C@@H](Nc2ncncc2C(=O)c2ccn(Cc3cccc(OC(F)F)c3)n2)[C@@H](F)[C@@H]1O [Compound I-303]
< 10 nM

Recorded IC50 for Cc1ccnc(Cn2ccc(C(=O)c3cncnc3N[C@@H]3C[C@H](COS(N)(=O)=O)[C@@H](O)[C@H]3O)n2)c1 [Compound I-51] with recombinant human SAE enzyme (Homo sapiens, UniProt Q9UBT2), please?
< 10 nM

Recall the recorded IC50 for NS(=O)(=O)OC[C@H]1C[C@@H](Nc2ncncc2C(=O)c2ccn(Cc3cc(F)c(F)cc3F)n2)[C@H](O)[C@@H]1O [Compound I-314] with recombinant human SAE enzyme (Homo sapiens, UniProt Q9UBT2) and state it.
< 10 nM

====

- Target System: recombinant human SAE enzyme (Homo sapiens)
- Sequence (Q9UBT2 1-640): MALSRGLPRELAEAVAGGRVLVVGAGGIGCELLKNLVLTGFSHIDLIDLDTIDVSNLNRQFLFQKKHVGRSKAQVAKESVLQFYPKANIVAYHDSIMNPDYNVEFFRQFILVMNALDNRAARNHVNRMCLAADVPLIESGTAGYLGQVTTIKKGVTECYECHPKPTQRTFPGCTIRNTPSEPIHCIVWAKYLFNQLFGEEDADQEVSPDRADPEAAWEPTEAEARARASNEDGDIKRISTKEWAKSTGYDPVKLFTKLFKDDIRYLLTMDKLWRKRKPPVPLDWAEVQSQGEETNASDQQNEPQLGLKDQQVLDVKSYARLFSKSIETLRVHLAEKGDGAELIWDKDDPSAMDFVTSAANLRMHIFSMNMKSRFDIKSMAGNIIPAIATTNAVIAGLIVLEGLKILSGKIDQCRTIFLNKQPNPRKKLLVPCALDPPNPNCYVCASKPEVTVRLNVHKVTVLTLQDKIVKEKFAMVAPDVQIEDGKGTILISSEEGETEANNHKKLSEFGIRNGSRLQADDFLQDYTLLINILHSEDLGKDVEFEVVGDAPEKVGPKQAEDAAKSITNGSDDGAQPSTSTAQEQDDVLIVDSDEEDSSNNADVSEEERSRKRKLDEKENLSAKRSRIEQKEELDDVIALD
- Sequence (Q9UBE0 1-346 partner): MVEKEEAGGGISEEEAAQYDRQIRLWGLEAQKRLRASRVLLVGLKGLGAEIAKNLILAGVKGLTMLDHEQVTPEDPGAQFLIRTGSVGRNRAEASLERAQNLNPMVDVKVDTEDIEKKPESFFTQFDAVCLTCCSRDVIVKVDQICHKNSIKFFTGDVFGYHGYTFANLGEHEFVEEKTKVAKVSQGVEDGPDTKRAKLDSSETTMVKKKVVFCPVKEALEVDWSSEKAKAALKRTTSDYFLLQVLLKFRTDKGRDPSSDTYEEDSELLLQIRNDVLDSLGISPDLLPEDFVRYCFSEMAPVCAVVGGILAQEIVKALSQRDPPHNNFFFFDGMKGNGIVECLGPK
- Test Name: SAE HTRF Enzyme Assay
- Assay type: biochemical
- Run Parameters: compound concentration 0.111 μM; read-out: Percent Inhibition
Value Type: inhibition at 0.111 µM (%)
Reply numerically in %, unit not repeated.

As a guide, the following entries are already answered.
Compound | inhibition at 0.111 µM / %
NS(=O)(=O)OC[C@H]1C[C@@H](Nc2ncncc2C(=O)c2ccn(Cc3cccc(Cl)c3)n2)[C@@H](F)[C@@H]1O | 98
NS(=O)(=O)OC[C@H]1C[C@@H](Nc2ncncc2C(=O)c2cc(Cl)n(Cc3cc(C(F)(F)F)on3)c2)[C@@H](F)[C@@H]1O | 85
COCC#CCn1ccc(C(=O)c2cncnc2N[C@@H]2C[C@H](COS(N)(=O)=O)[C@@H](O)[C@@H]2F)c1 | 54
CC(C)(O)c1cccc(Cn2ccc(C(=O)c3cncnc3N[C@@H]3C[C@H](COS(N)(=O)=O)[C@@H](O)C3)n2)c1 | 91
Cc1cc(C(=O)c2cncnc2N[C@@H]2C[C@H](COS(N)(=O)=O)[C@@H](O)C2)nn1Cc1ccc(Cl)o1 | 100

Give its inhibition at 0.111 µM value. Item: NS(=O)(=O)OC[C@H]1C[C@@H](Nc2ncncc2C(=O)c2ccn(Cc3ccc(Cl)s3)c2)[C@@H](F)[C@@H]1O
100

Any idea what its inhibition at 0.111 µM is? The compound is NS(=O)(=O)OC[C@H]1C[C@@H](Nc2ncncc2C(=O)c2ccn(Cc3ccc(F)c(C(F)(F)F)c3)n2)[C@H](O)[C@@H]1O
97

Looking for the measured inhibition at 0.111 µM of Cc1cc(Cn2ccc(C(=O)c3cncnc3N[C@@H]3C[C@H](COS(N)(=O)=O)[C@@H](O)[C@H]3O)n2)no1 , can you help?
97

Recorded inhibition at 0.111 µM for NS(=O)(=O)OC[C@H]1C[C@@H](Nc2ncncc2C(=O)c2ccn(Cc3cccc(Br)c3)c2)[C@@H](F)[C@@H]1O , please?
99

Which inhibition at 0.111 µM value belongs to CC(c1cccc(Br)c1)n1ccc(C(=O)c2cncnc2N[C@@H]2C[C@H](COS(N)(=O)=O)[C@@H](O)[C@@H]2F)c1 (single isomer, unassigned) ?
98

Value lookup for inhibition at 0.111 µM; key = NS(=O)(=O)OC[C@H]1C[C@@H](Nc2ncncc2C(=O)c2ccn(Cc3cccc(Oc4ccc(F)cc4)c3)n2)[C@H](O)[C@@H]1O
88

What value of inhibition at 0.111 µM has been reported for the following compound? CCC#CCn1ccc(C(=O)c2cncnc2N[C@@H]2C[C@H](COS(N)(=O)=O)[C@@H](O)C2)n1
91

For the compound shown here, CC1(C)CCC(Cn2ccc(C(=O)c3cncnc3N[C@@H]3C[C@H](COS(N)(=O)=O)[C@@H](O)[C@@H]3F)c2)O1 (mixture of isomers) , give the reported inhibition at 0.111 µM.
86

// provenance: patent US9695154B2
